system: TDF; test: cell number relative to DMSO (% of DMSO); higher = more cells (less growth inhibition / toxicity); conditions: concentration: 10 µM; 24 h;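 note: TDF denotes transformed human dermal fibroblasts of mesenchymal origin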

- Compound: "CC1(NC2=NS(=O)(=O)c3sc(Cl)cc3N2)CC1"
  cell number: 90.6
- Compound: "CC(=O)OC1(C(C)=O)CCC2C3C=C(C)C4=CC(=O)CCC4(C)C3CCC21C (stereo not given) [Megestrol Acetate]"
  cell number: 96.9
- Compound: "NC(N)=NCc1cccc(I)c1"
  cell number: 97.3
- Compound: "CCNC(=O)C1OC(n2cnc3c(NCc4ccccc4)ncnc32)C(O)C1O (stereo not given)"
  cell number: 57.3
- Compound: "C[C@H](c1ccc(F)cc1CCCC(=O)O)N(c1cc(F)ccc1F)S(=O)(=O)c1ccc(Cl)cc1"
  cell number: 90.2
- Compound: "N[C@@H](Cc1ccc(F)cc1)C(=O)O"
  cell number: 102
- Compound: "CC(N)C12CC3CC(CC(C3)C1)C2 (stereo not given)"
  cell number: 107
- Compound: "COc1cc(C(=O)NS(=O)(=O)c2ccccc2C)ccc1Cc1cn(C)c2ccc(NC(=O)OC3CCCC3)cc12"
  cell number: 110
- Compound: "CCn1cc(C(=O)O)c(=O)c2cc(F)c(N3CCNC(C)C3)c(F)c21 (stereo not given)"
  cell number: 90.9
- Compound: "O=c1ccc2cc3ccoc3cc2o1 [7H-furo[3,2-g]chromen-7-one]"
  cell number: 105
- Compound: "C#CC1(O)CCC2C3C(C)CC4=C(CCC(=O)C4)C3CCC21C (stereo not given)"
  cell number: 96.7
- Compound: "Cl.Fc1cccc(CN(C2=NCCN2)c2c(Cl)cccc2Cl)c1 [IMID-4F hydrochloride]"
  cell number: 99.7
- Compound: "Cc1ccc(C(=O)Nc2ccc(S(=O)(=O)[O-])c3cc(S(=O)(=O)[O-])cc(S(=O)(=O)[O-])c23)cc1NC(=O)c1cccc(NC(=O)Nc2cccc(C(=O)Nc3cc(C(=O)Nc4ccc(S(=O)(=O)[O-])c5cc(S(=O)(=O)[O-])cc(S(=O)(=O)[O-])c45)ccc3C)c2)c1.[Na+].[Na+].[Na+].[Na+].[Na+].[Na+] [Suramin hexasodium]"
  cell number: 101
- Compound: "N=C([NH3+])N1CCc2ccccc2C1.N=C([NH3+])N1CCc2ccccc2C1.O=S(=O)([O-])[O-] [Debrisoquin sulfate]"
  cell number: 107
- Compound: "NCC1OC(OC2C(CO)OC(OC3C(O)C(N)CC(N)C3OC3OC(CN)C(O)C(O)C3N)C2O)C(N)C(O)C1O (stereo not given)"
  cell number: 93.4
